system: Platelet-derived growth factor receptor alpha (Homo sapiens), P16234 [T674I]; conditions: at 0.1 µM
Sequence (P16234 whole entry T674I): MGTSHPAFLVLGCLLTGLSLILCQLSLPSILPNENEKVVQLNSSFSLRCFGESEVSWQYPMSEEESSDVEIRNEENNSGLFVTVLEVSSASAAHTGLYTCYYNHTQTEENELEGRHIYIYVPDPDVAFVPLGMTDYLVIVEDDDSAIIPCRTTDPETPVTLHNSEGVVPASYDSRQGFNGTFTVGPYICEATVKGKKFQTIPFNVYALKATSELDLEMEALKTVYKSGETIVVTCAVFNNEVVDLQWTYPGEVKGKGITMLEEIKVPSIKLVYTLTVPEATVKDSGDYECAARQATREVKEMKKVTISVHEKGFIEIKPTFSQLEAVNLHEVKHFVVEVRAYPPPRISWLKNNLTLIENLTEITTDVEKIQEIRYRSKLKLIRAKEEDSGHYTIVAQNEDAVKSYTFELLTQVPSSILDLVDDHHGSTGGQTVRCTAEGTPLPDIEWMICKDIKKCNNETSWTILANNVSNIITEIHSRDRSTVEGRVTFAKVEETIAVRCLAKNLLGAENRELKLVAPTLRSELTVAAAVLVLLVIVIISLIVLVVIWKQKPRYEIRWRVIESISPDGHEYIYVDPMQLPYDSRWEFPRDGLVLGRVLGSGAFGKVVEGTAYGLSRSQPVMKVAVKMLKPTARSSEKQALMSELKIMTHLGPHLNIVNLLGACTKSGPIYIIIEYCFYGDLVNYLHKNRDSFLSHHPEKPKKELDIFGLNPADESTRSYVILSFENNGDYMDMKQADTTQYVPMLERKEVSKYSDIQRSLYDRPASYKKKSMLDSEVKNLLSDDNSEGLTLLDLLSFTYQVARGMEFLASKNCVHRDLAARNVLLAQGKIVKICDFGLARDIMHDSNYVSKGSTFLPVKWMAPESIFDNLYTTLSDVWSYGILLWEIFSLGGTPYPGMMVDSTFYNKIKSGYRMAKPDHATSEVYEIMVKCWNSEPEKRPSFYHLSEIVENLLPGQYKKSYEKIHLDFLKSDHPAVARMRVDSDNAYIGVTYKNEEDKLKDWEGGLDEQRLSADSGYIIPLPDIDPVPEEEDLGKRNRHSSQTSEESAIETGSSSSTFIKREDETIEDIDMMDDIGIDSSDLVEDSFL
For each entry below, report its inhibition value.
Respond with a number, then the unit of measure.

Challenge: Param item = N#Cc1c(NC(=O)CN2CCOCC2)sc2c1CCCC2 ; retrieve measured inhibition.
Response given: 6.89%

Challenge: Param item = Cc1ccc2c(-c3ccnc(Nc4ccccc4)n3)c(-c3ccc(F)cc3)nn2n1 ; retrieve measured inhibition.
Response given: 4.09%

Challenge: Param item = CC(=O)Nc1cccc(C#Cc2cncnc2Nc2ccc(OCc3cccc(F)c3)c(Cl)c2)c1 ; retrieve measured inhibition.
Response given: 5.24%

Challenge: Param item = Fc1ccc(-c2nn3ncccc3c2-c2ccnc(Nc3ccc4c(c3)OCCO4)n2)cc1 ; retrieve measured inhibition.
Response given: 5.87%

Challenge: Param item = COc1ccc2[nH]c3c4[nH]c5ccc(OC)cc5c4c4c(c3c2c1)C(=O)NC4=O ; retrieve measured inhibition.
Response given: 65.7%
